Assay: Secondary Assay for General miRNAs Modulators and/or Inhibitors/Activators of miR-21: miR-30 Firefly Luciferase Assay for second round cherrypicks
Conditions: HeLa miR-30 FLuc reporter, luminescence, 48 h; series mostly up to 38.3 µM
Inconclusive results are not listed. Calls of active or inactive are those of the source. The call rests on the fitted dose curve; in most records, active means well fitted inhibition curve with a large enough effect; inconclusive means small, poorly fitted or top-dose-only effect; inactive means flat fitted curve, though single readings scatter.
I would appreciate it if you answered using one of these outcomes: y for active, n for inactive

Inquiry: How was CCC(C)C(=O)N1CCCC(c2nc(-c3cccs3)no2)C1 (stereo unspecified) classified in this test?
Reply text: y

Inquiry: How was Cc1ccc(-c2cc(C(=O)NCC3CCCO3)no2)cc1 (stereo unspecified) classified in this test?
Reply text: y

Inquiry: How was O=C(Nc1sc2c(c1C(=O)NCc1ccco1)CCCC2)c1cc(=O)c2ccccc2o1 classified in this test?
Reply text: y

Inquiry: How was C/C(=N/NC(=O)c1ccccc1)c1ccc(NC(=O)C(F)(F)F)cc1 classified in this test?
Reply text: n

Inquiry: How was Cc1cc(N2CCN(C)CC2)nc2ccc(NC(=O)c3ccccc3F)cc12 classified in this test?
Reply text: y

Inquiry: How was Cc1ccc2c(Cl)c(C(=O)Nc3ccc4c(c3)OCO4)sc2c1 classified in this test?
Reply text: y

New cases:
Inquiry: How was Cc1ccccc1OCc1nc2c3cnn(-c4ccccc4F)c3ncn2n1 classified in this test?
Reply text: y

Inquiry: How was CCC(=O)Nc1sc(C(=O)Nc2ccccc2)c(C)c1C(=O)OC classified in this test?
Reply text: y

Inquiry: How was Cc1ccc(NC(=O)c2ccc(-c3ccccc3)s2)cc1 classified in this test?
Reply text: y

Inquiry: How was CC(C)(C)CC(=O)Nc1nnc(-c2cccs2)s1 classified in this test?
Reply text: y

Inquiry: How was CN(C)c1ccc(CNC(=O)C2COc3ccccc3C2)cc1 (stereo unspecified) classified in this test?
Reply text: n

Inquiry: How was CCCOc1ccc(OC(=O)c2ccc(-c3ccc(CCC)cn3)cc2)cc1 classified in this test?
Reply text: y

Inquiry: How was Cc1ccc2nc(-c3ccc(NC(=O)c4ccc(S(C)(=O)=O)cc4)cc3)sc2c1 classified in this test?
Reply text: n

Inquiry: How was CCc1cc(C(=O)Nc2ccccc2)cs1 classified in this test?
Reply text: y

Inquiry: How was COc1ccc(Nc2nc(C)c3ccccc3n2)cc1 classified in this test?
Reply text: y

Inquiry: How was CC(=O)N1CCc2cc(CNC(=O)Cc3ccc(F)cc3)ccc21 classified in this test?
Reply text: y
